# Test system: BDF1 mice, B16 melanoma s.c., survival/tumor T/C
# measurement.protocol: NCI In Vivo Anticancer Drug Screen. Data for tumor model B16 Melanoma (subcutaneous) in B6D2F1 (BDF1) mice
# condition.notes: endpoint: median survival time; dose: 10.0 mg/kg/injection; schedule: Q01DX009 (ip); vehicle: Klucel (hydroxypropylcellulose) (HPC); higher = longer survival
Records with an inconclusive call do not appear.
quantity.kind: T/C

Known results for compounds:
O=c1[nH]cc(F)c(=O)[nH]1	100 % of control
C/C=C(\C)C(=O)O[C@@H]1c2cc3c(cc2-c2c(cc(OC)c(OC)c2OC)[C@@H]2C(=O)OC[C@@H]12)OCO3	101 % of control
O=C1C=CC(=O)N1c1ccc(Cl)cc1	89 % of control

Now take the following compound into account.
## Task Query (compound): "COc1cc2c(c(OC)c1OC)-c1cc3c(cc1[C@@H](OC(C)=O)[C@@H]1COC(=O)[C@H]1C2)OCO3" ; field requested: T/C
## Result 109 % of control

Sourced from PubChem BioAssay AID194
